Catalogue of compounds with associated pEC50
Species: Rattus norvegicus
Assay: Inhibition of arachidonic acid-induced blood platelet aggregation in rat
Assay type: functional
pEC50: −log10 of the molar value.
Quantity kind: pEC50

| Smiles data | Quantity kind | Readout value |
| --- | --- | --- |
| Cl.O=C1CN2Cc3c(sc4c3CCCC4)N=C2N1 | pEC50 | 6.30 |
| Cc1cccc2c1CN1CC(=O)NC1=N2 | pEC50 | 6.30 |
